Target Of Assay: T1, HA-GCN4 hAPRIL (amino acid residues 105-250) (human, UniProt O75888 105-250)
T1 construct: Bought (R&D Systems); also called HA-tagged GCN4 human APRIL; HA-GCN4-huAPRIL; not shown: N-terminal HA tag; GCN4 isoleucine zipper oligomerization domain
T1 sequence: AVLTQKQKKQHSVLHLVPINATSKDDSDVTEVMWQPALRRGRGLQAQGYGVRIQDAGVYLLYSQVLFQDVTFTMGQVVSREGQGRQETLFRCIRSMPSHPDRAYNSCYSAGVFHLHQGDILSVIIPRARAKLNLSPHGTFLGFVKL
Experiment Summary: blocking ELISA; blocked: human APRIL binding to human BCMA-Fc
Design: concentration or dose not given beside the values
Reported % Inhibition values follow for various binders

Binder	% Inhibition
monoclonal antibody 3732 (antibody, V domains shown, mouse-derived) VH: EIQLQQSGPELVKPGASVKVSCKASGYSFTDDNMYWVKQSHGKSLEWIGYIDPLNGGTGYNQKFKGKATLTVDKSSSTAFLHLNSLTSEDSAVYYCARRDNYATGTMDYWGQGTSVTVSS VL: DIVMTQSQKFMSTSVGDRVSITCKASKNVGTDVSWYQQKPGKSPKPLIYWASNRFTGVPDRFTGSGSGTDFTLTINNVQSEDLADYFCEQYSSYPLTFGAGTKLELK	100%
3934 (antibody, V domains shown, also called monoclonal antibody 3934) VH: QVQLQQSGPELVKPGASVKLSCKAAGYIFTDYTINWVKQSPGQGLEWIGWIYPGSGNRKYNDKFKGKATMTADKSSSTAYMQLSSLTSEDSAVYFCARESNYVGYYAMDYWGQGTSVTVSS VL: DVLMTQTPLSLPVSLGDQASISCRSSQSVVNSNGNTYLEWYLQKPGQSPNLLIYKVSNRFSGVPDRFSGSGSGTDFTLKISRVEAEDLGVYYCFQGSHVPWTFGGGTKLEIK	98%
monoclonal antibody 3833 (antibody, V domains shown, mouse-derived) VH: QVQLQQSGAELVRPGTSVKMSCKAAGYTFTNYWIGWVKQRPGHGLEWIGDIYPGGIGGGYTKYNEKFKGKATLTADTSSSTAYMQLGSLTSEDSAIYFCSRSETGRAMDYWGQGTSVTVSS VL: DIQMTQSPSSLSASLGGKVTITCKASQDINKYIAWYQHKPGKGPRLLIHYTSTLKPGIPSRFSGSGSGRDYSFSISDLEPEDIATYYCLQYDNLNTFGGGTKLEIK	96%

The reported numbers originate from patent US20170145086A1.
